experiment: amyloid nucleation score (Sup35N fusion, yeast selection) (log enrichment); library NNK1; higher = more nucleation; inactive = no reads after selection;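 also: zero at mode of non-aggregating sequences after 7 days selection at 30°C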
Tag: Condition met if measured amyloid nucleation score is not below 0.6, Condition not met if it is.

- DLLDLIQISDSLKILNALPE: Condition met

Textbook exercise: given the entry IRHRCSLMICFPAHTRGSAQ , state whether its amyloid nucleation score is greater than or equal to 0.6.
Condition not met

Textbook exercise: given the entry CFVVAWCKTITV , state whether its amyloid nucleation score is greater than or equal to 0.6.
Condition met

Textbook exercise: given the entry IPENCSGLYWLGNYVPSIAD , state whether its amyloid nucleation score is greater than or equal to 0.6.
Condition not met

* * *

assay: amyloid nucleation score (Sup35N fusion, yeast selection) (log enrichment); library NNK1; higher = more nucleation; inactive = no reads after selection
assay-metric: amyloid nucleation score
Respond using a number only.

State the recorded amyloid nucleation score for this entry: RSLFFV
-0.867

State the recorded amyloid nucleation score for this entry: NMDGLAPISGSFYSRSGNFI
0.964

State the recorded amyloid nucleation score for this entry: WCQKYNFRCSVLDLTFSLLW
6.71

State the recorded amyloid nucleation score for this entry: PIRPWAHYGMANWVQKAF
-0.763

* * *

experiment: amyloid nucleation score (Sup35N fusion, yeast selection) (log enrichment); library NNK1; higher = more nucleation; inactive = no reads after selection
assay-metric: amyloid nucleation score
Respond using a number only.

Some solved cases for reference:
* LKLLFVTLKMLASMFFRGS | -1.28
* LMVNYRLRLYFFVLDSCDGE | -0.348

State the recorded amyloid nucleation score for this entry: CVGSIKVNSLSRLFCHLLCV
-0.187

State the recorded amyloid nucleation score for this entry: FLVNFGWRFAD
1.14

State the recorded amyloid nucleation score for this entry: LVDWVYGWGVVVFAMSQGSE
0.125

State the recorded amyloid nucleation score for this entry: MPDYVVGYHGGWSCNLILRF
2.54

State the recorded amyloid nucleation score for this entry: VRHMWWVFPIFEISVRKCPV
-0.116

State the recorded amyloid nucleation score for this entry: TVAGVR
0.174

State the recorded amyloid nucleation score for this entry: IRGCTAC
0.958

State the recorded amyloid nucleation score for this entry: RLLRYMRDIR
-0.814

State the recorded amyloid nucleation score for this entry: AVSDVTVIRRCMFIG
0.448

State the recorded amyloid nucleation score for this entry: NCSMPFETMMKHSRN
-0.068

State the recorded amyloid nucleation score for this entry: LLVRHEEKG
0.263

State the recorded amyloid nucleation score for this entry: RVRTPHNWTWGITCTWVFKF
0.326

State the recorded amyloid nucleation score for this entry: HYRRVTVMCPLRVFVYAPKT
5.61

State the recorded amyloid nucleation score for this entry: MGSEVSELWGLVEVKVGDKP
0.617

State the recorded amyloid nucleation score for this entry: LKNSVSFMADGS
-0.327

* * *

assay: amyloid nucleation score (Sup35N fusion, yeast selection) (log enrichment); library NNK3; higher = more nucleation; inactive = no reads after selection
assay-metric: amyloid nucleation score

Some solved cases for reference:
* RVKVSYASYARK | 1.49
* KANRFRVVMLGVDGVCAFQS | inactive
* DYHLQLKMLRPW | inactive
* PSSIKRVL | -0.33
* DPWDPYFNLRVSYPFKYYLS | inactive

State the recorded amyloid nucleation score for this entry: VGRAEWLC
inactive

State the recorded amyloid nucleation score for this entry: RGGGQDDYTRFLGSLNDVPV
inactive

State the recorded amyloid nucleation score for this entry: FFFLNSWVFYVLMNNDIVCA
inactive

State the recorded amyloid nucleation score for this entry: FMFASQLMRFFHSWTVSRSS
inactive

* * *

test: amyloid nucleation score (Sup35N fusion, yeast selection) (log enrichment); library NNK1; higher = more nucleation; inactive = no reads after selection
assay-metric: amyloid nucleation score
Respond using a number only.

Some solved cases for reference:
• VKESRCCSYGTVRSISQGLG = -0.512
• SFNWPGFPDCFGPFRAVFIS = -0.61

State the recorded amyloid nucleation score for this entry: DVTLMCYRQCLDMDMPIDLG
0.733

State the recorded amyloid nucleation score for this entry: NSFRTGVLYSMESEGMAWWC
-0.044

State the recorded amyloid nucleation score for this entry: LLPWGYD
2.77

State the recorded amyloid nucleation score for this entry: LTNFNAWR
0.098

State the recorded amyloid nucleation score for this entry: RVDQVKSGFDMLYYPHWHQL
0.532

State the recorded amyloid nucleation score for this entry: CFGRRRVRIELGTAWPFSVL
-0.754

State the recorded amyloid nucleation score for this entry: VNPFIFLNRNCAPILGWTCC
3.11

State the recorded amyloid nucleation score for this entry: FAWGGFC
-0.155

State the recorded amyloid nucleation score for this entry: PCLVGIDMVTMVAESLCGSG
-0.958

* * *

Measured amyloid nucleation score, listed per entry.
assay: amyloid nucleation score (Sup35N fusion, yeast selection) (log enrichment); library NNK2; higher = more nucleation; inactive = no reads after selection
Respond using a number only.

- NFTSGGRRHNVERVGHLGLV: -0.168
- SNCRLGKGYYNCF: -0.833
- GSSTSGVCTGVRERAVDCGV: 0.007

State the recorded amyloid nucleation score for this entry: RLLSTCMILMMASRTCYVYN
0.69

State the recorded amyloid nucleation score for this entry: RILLRRAKFGSR
0.432

State the recorded amyloid nucleation score for this entry: MGRTHRTTTPGSRFYTSTAF
-0.57

State the recorded amyloid nucleation score for this entry: KTMNPYDFSLFIATIMKSLN
-0.476

State the recorded amyloid nucleation score for this entry: AMNRFST
-0.975

State the recorded amyloid nucleation score for this entry: THFSPMGY
-0.586

State the recorded amyloid nucleation score for this entry: PGRDTVTLLHLCHFGVGSGF
0.165

State the recorded amyloid nucleation score for this entry: SFRSMIQQSAAGFYSSFIST
-1.89

State the recorded amyloid nucleation score for this entry: ANSPVGHEPGFECKSGFRET
0.168

State the recorded amyloid nucleation score for this entry: EVHGCYRAWDCMMVACVNAL
0.963

State the recorded amyloid nucleation score for this entry: DARKNVDRSPSSLSEKVLSL
0.642

State the recorded amyloid nucleation score for this entry: RMVTVAS
1.68

* * *

assay: amyloid nucleation score (Sup35N fusion, yeast selection) (log enrichment); library NNK2; higher = more nucleation; inactive = no reads after selection
Tag: yes (1) if measured amyloid nucleation score is not below 0.5, no (0) if it is.

The examples below pair each entry with its known result.
- AVPMMSWSFIVSYVGRNNSM: yes (1)
- NPTLGHKNVFVRYSF: yes (1)

Textbook exercise: given the entry CGQLSVWYEGMINVSCFLEI , state whether its amyloid nucleation score is greater than or equal to 0.5.
no (0)

Textbook exercise: given the entry NGWIYAYDLLLERTSQSWKI , state whether its amyloid nucleation score is greater than or equal to 0.5.
no (0)

Textbook exercise: given the entry IHAFLALVNCNDTSTKTEVK , state whether its amyloid nucleation score is greater than or equal to 0.5.
no (0)

Textbook exercise: given the entry VFKRNQ , state whether its amyloid nucleation score is greater than or equal to 0.5.
yes (1)

Textbook exercise: given the entry LDRMSRIRGSCRYACVL , state whether its amyloid nucleation score is greater than or equal to 0.5.
yes (1)

Textbook exercise: given the entry LFGHLVLYYPFSSTINCVVV , state whether its amyloid nucleation score is greater than or equal to 0.5.
yes (1)

Textbook exercise: given the entry QLPNPKNMISIGNYWKQRSF , state whether its amyloid nucleation score is greater than or equal to 0.5.
no (0)

Textbook exercise: given the entry FIRNYWSVYGRWSANIFDDL , state whether its amyloid nucleation score is greater than or equal to 0.5.
no (0)

Textbook exercise: given the entry KLYMCVIFYCLKGRLLVTYM , state whether its amyloid nucleation score is greater than or equal to 0.5.
no (0)

Textbook exercise: given the entry NLGTWD , state whether its amyloid nucleation score is greater than or equal to 0.5.
no (0)

Textbook exercise: given the entry CASAFCLTRE , state whether its amyloid nucleation score is greater than or equal to 0.5.
yes (1)

Textbook exercise: given the entry CFGVRDSGRYFDTLSNVRSR , state whether its amyloid nucleation score is greater than or equal to 0.5.
yes (1)

* * *

assay: amyloid nucleation score (Sup35N fusion, yeast selection) (log enrichment); library NNK1; higher = more nucleation; inactive = no reads after selection
Tag: condition met if measured amyloid nucleation score is not below 0.5, condition not met if it is.

The examples below pair each entry with its known result.
• MRLSNYFTGRDWGF = condition not met
• KIILPVSGVKINMQAWSRSH = condition met
• NQACAFYNRLRFGK = condition met
• LCFYDKYGPQYL = condition not met
• CDSYSKMPPGRNILVCQFCW = condition met
• FYRASKDCLAKVRRVGC = condition not met
• WYASRTTSIEYTKVYKCGGP = condition met
• HRCRREYSQSSGSWDESIEN = condition met

Query sequence follows.
Textbook exercise: given the entry SSFRYVCCASRCRETSELLG , state whether its amyloid nucleation score is greater than or equal to 0.5.
condition not met
